# testDescription: in vivo
# recordedConditions: Sprague-Dawley, rat, po, 0.5 mg/kg
# Experimental: On the fifth day, blood samples were collected from the 18 h fasted rats at different time intervals namely; at zero time, 0.5, 1, 2, 3, 4, 6, 8, 12, 24, 48 and 72 h from all groups and drawn into EDTA micro tubes. The micro tubes were centrifuged at 7000 RPM for 10 min. Plasma was separated, transferred directly into labeled Eppendorf tubes and stored at − 20 °C until requested for HPLC analysis. […]
quantityMeasured: Vd/F (L)

>  <compound>
CC(=O)CC(c1ccccc1)c1c(O)c2ccccc2oc1=O (stereo not shown)

>  <recordedMeasurement>
0.035

$$$$

---

# testDescription: in vivo
# recordedConditions: Sprague-Dawley, rat, po, 0.5 mg/kg

>  <molecule>
CC(=O)CC(c1ccccc1)c1c(O)c2ccccc2oc1=O (stereo not shown)

>  <AUC / µg·h/mL>
107

$$$$

---

# testDescription: in vivo
# recordedConditions: Sprague-Dawley, rat, po, 0.5 mg/kg
quantityMeasured: Tmax (h)

>  <molecule>
CC(=O)CC(c1ccccc1)c1c(O)c2ccccc2oc1=O (stereo not shown)

>  <quantityMeasured>
Tmax

>  <recordedMeasurement>
6

$$$$

---

# testDescription: in vivo
# recordedConditions: Sprague-Dawley, rat, po, 0.5 mg/kg
# Protocol: On the fifth day, blood samples were collected from the 18 h fasted rats at different time intervals namely; at zero time, 0.5, 1, 2, 3, 4, 6, 8, 12, 24, 48 and 72 h from all groups and drawn into EDTA micro tubes. The micro tubes were centrifuged at 7000 RPM for 10 min. Plasma was separated, transferred directly into labeled Eppendorf tubes and stored at − 20 °C until requested for HPLC analysis. […]

>  <molecule>
CC(=O)CC(c1ccccc1)c1c(O)c2ccccc2oc1=O (stereo not shown)

>  <MRT / h>
25

$$$$

---

# testDescription: in vivo
# recordedConditions: Sprague-Dawley, rat, po, 0.5 mg/kg
quantityMeasured: Cmax (ng/mL)

>  <molecule>
CC(=O)CC(c1ccccc1)c1c(O)c2ccccc2oc1=O (stereo not shown)

>  <recordedMeasurement>
3670

$$$$
